System: Setaria faberi (SETFA)
assay.name: Pre-emergence glasshouse herbicide test, Setaria faberi
Format: in vivo
applied.conditions: 1000 g/h, evaluated after 13 days, five point scale
measured.metric: percentage damage caused to the plant, PRE Application SETFA

The examples below pair each entry with its known result.
>>> test_value("CCCn1nnnc1NC(=O)c1nn2cnn(-c3ccc(OC)cc3)c2nc1=O")
"5 (5=80-100%)"
>>> test_value("CCn1nnnc1NC(=O)c1nn2cnn(-c3ccc(OC)cc3)c2nc1=O")
"5 (5=80-100%)"

-- ask Please report percentage damage caused to the plant, PRE Application SETFA for the following compound: `CCn1nnnc1NC(=O)c1nn2cnn(-c3ccccc3)c2nc1=O`
-- reply 5 (5=80-100%)

-- ask Please report percentage damage caused to the plant, PRE Application SETFA for the following compound: `CCn1nnnc1NC(=O)c1nn2cnn(-c3ccc(C)cc3C)c2nc1=O`
-- reply 4 (4=60-79%)

-- ask Please report percentage damage caused to the plant, PRE Application SETFA for the following compound: `CCCn1nnnc1NC(=O)c1nn2cnn(-c3ccc(F)cc3)c2nc1=O`
-- reply 5 (5=80-100%)

* * *

The following molecules are listed with their measured percentage damage caused to the plant, POST Application ECHCG values.
System: Echinochloa crus-galli (ECHCG)
assay.name: Post-emergence glasshouse herbicide test, Echinochloa crus-galli
Type: in vivo
applied.conditions: 1000 g/h, evaluated after 13 days, five point scale

The examples below pair each entry with its known result.
>>> test_value("Cn1ncnc1NC(=O)c1nn2cnn(-c3ccc(F)cc3)c2nc1=O [Compound 2.001]")
"4 (4=60-79%)"
>>> test_value("Cn1cnnc1NC(=O)c1nn2cnn(-c3ccc(F)cc3)c2nc1=O [Compound 3.001]")
"1 (1=0-19%)"
>>> test_value("CCn1nnnc1NC(=O)c1nn2cnn(-c3ccc(OC)cc3)c2nc1=O [Compound 1.034]")
"5 (5=80-100%)"
>>> test_value("Cn1nnnc1NC(=O)c1nn2cnn(-c3cccc(Cl)c3)c2nc1=O [Compound 1.018]")
"5 (5=80-100%)"
>>> test_value("Cc1cccc(-n2ncn3nc(C(=O)C4C(=O)CC(C)CC4=O)c(=O)nc23)c1 (stereo not drawn) [Compound 6.001]")
"5 (5=80-100%)"
>>> test_value("CCCn1nnnc1NC(=O)c1nn2cnn(-c3cccc(OC)c3)c2nc1=O [Compound 1.036]")
"4 (4=60-79%)"
>>> test_value("CCCn1nnnc1NC(=O)c1nn2cnn(-c3ccc(C(F)(F)F)cc3)c2nc1=O [Compound 1.043]")
"1 (1=0-19%)"
>>> test_value("CCn1nnnc1NC(=O)c1nn2cnn(-c3ccc(C)cc3C)c2nc1=O [Compound 1.045]")
"5 (5=80-100%)"
>>> test_value("COc1cccc(-n2ncn3nc(C(=O)C4C(=O)CCCC4=O)c(=O)nc23)c1 [Compound 4.010]")
"5 (5=80-100%)"
>>> test_value("O=C(Nc1nnnn1-c1ccccc1)c1nn2cnn(-c3ccccc3)c2nc1=O [Compound 1.027]")
"1 (1=0-19%)"

-- ask Please report percentage damage caused to the plant, POST Application ECHCG for the following molecule: CCCCn1nnnc1NC(=O)c1nn2cnn(-c3ccc(F)cc3)c2nc1=O [Compound 1.039]
-- reply 5 (5=80-100%)

-- ask Please report percentage damage caused to the plant, POST Application ECHCG for the following molecule: CCCn1nnnc1NC(=O)c1nn2cnn(CCC)c2nc1=O [Compound 1.031]
-- reply 5 (5=80-100%)
